# System tested: SerB2 (M. tuberculosis phosphoserine phosphatase) (Mycobacterium tuberculosis)
# Sequence (O53289 whole entry): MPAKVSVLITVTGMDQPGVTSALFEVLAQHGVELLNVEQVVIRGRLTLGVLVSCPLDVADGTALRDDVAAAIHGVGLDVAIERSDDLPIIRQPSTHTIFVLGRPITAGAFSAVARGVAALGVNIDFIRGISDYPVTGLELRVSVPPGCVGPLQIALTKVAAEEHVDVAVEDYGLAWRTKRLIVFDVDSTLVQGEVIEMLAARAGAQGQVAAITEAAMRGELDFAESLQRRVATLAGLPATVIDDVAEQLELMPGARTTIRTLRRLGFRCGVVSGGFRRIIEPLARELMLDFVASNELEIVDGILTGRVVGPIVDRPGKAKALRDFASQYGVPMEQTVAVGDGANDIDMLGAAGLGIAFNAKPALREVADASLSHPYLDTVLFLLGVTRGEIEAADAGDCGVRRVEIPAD
Assay endpoint: Ki (µM)
One number for each entry, in µM.

Please review the following examples before continuing.
Cc1c2c(cc[n+]1CCC(C)C)c1ccc(OCCC(C)C)cc1n2CCC(C)C [compound 88, 88] : 18.3
Cc1c2c(cc[n+]1Cc1ccc3ccccc3c1)c1ccc(OCc3ccccc3)cc1n2Cc1ccccc1 [compound 95, 95] : 6.66
Cc1c2c(cc[n+]1CCc1ccccc1)c1ccc(OCC3CCCCC3)cc1n2CC1CCCCC1 [compound 91, 91] : 3.27

input: Consider the molecule Cc1c2c(cc[n+]1CCC1CCCCC1)c1ccc(OCC3CCCCC3)cc1n2CC1CCCCC1 [compound 124] and give its measured Ki.
output: 1.75
